Please provide measured AUC for the entries that follow.
measurement_notes: Area under plasma concentration-time curve in rat upon oral/iv administration at 2 mg/kg
Type: ADME, organism-based
Parameters: dose 2 mg/kg
run_parameters: in vivo
Lab book: enter the figure in ng·h/mL, no units written.

The compound listed as NC(=O)N(O)CCC#Cc1ccc(OCCN2CCC(=C3c4ccc(Cl)cc4CCc4cccnc43)CC2)cc1 shows AUC equal to 83

The compound listed as NC(=O)N(O)CCC#Cc1ccc(OCCN2CCN([C@H](c3ccccc3)c3ccc(Cl)cc3)CC2)cc1 shows AUC equal to 300

* * *

Please provide measured Cmax for the entries that follow.
measurement_notes: Maximum plasma concentration in rat upon oral/iv administration at 2 mg/kg
Format: ADME, organism-based
Design: dose 2 mg/kg
Lab book: enter the figure in ng/mL, no units written.

The compound listed as NC(=O)N(O)CCC#Cc1ccc(OCCN2CCC(=C3c4ccc(Cl)cc4CCc4cccnc43)CC2)cc1 shows Cmax equal to 30

The compound listed as NC(=O)N(O)CCC#Cc1ccc(OCCN2CCN([C@H](c3ccccc3)c3ccc(Cl)cc3)CC2)cc1 shows Cmax equal to 66
